Reference source: PubChem BioAssay (Tox21)

- experimental.system: Cytochrome P450 2D6 (Homo sapiens)
- experiment.summary: Cytochrome P450 Family 2 Subfamily D Member 6 (CYP2D6) small molecule antagonists: luciferase reporter qHTS assay (AID 1671196); note: nearly all actives have a fitted effect of over 50% in size
- settings: P450-Glo CYP2D6 enzyme assay, luciferin luminescence, 1 h; series mostly up to 115 µM
- Description: U.S. Tox21 Program National Center for Advancing Translational Sciences [NCATS] U.S. Environmental Protection Agency [EPA] National Institutes of Environmental Health Sciences [NIEHS] National Toxicology Program [NTP] U.S. Food and Drug Administration [FDA] […] The luciferin products formed are detected with a luciferin detection reagent, and the amount of light produced is proportional to CYP activity. […]
Results filed as inconclusive are left out. Active and inactive are the calls of the source. Calls come from the whole dose curve; as a rule, active = well fitted inhibition curve with a large enough effect in the repeat runs; inconclusive = weak or mixed curves; inactive = no such curve, though single readings can be large or run the other way.
Possible outcomes: 1 = active, 0 = inactive

[
  {
    "compound": "COc1cccc(C(=O)CCN[C@@H](C)[C@H](O)c2ccccc2)c1",
    "category": 1
  },
  {
    "compound": "CCc1ccccc1C",
    "category": 0
  },
  {
    "compound": "BrCC(Br)c1ccccc1 (centres undefined)",
    "category": 1
  },
  {
    "compound": "ClC1=C(Cl)[C@]2(Cl)[C@H]3[C@H]([C@H]4C=C[C@H]3C4)[C@@]1(Cl)C2(Cl)Cl",
    "category": 0
  },
  {
    "compound": "CC(C)CC(C)Nc1ccc(Nc2ccccc2)cc1 (centres undefined)",
    "category": 1
  },
  {
    "compound": "CCCN(CCC)c1c([N+](=O)[O-])cc(S(N)(=O)=O)cc1[N+](=O)[O-]",
    "category": 1
  },
  {
    "compound": "Cl/C=C\\CCl",
    "category": 0
  },
  {
    "compound": "CN(C)C1CSSSC1",
    "category": 1
  },
  {
    "compound": "CCCN(CCC)CCc1c[nH]c2ccccc12",
    "category": 1
  },
  {
    "compound": "CCCCCCCCCCCCCCCCCCn1cc[n+](C)c1",
    "category": 1
  },
  {
    "compound": "CCCCCCCCCBr",
    "category": 0
  },
  {
    "compound": "O=CC(Br)(Br)Br",
    "category": 0
  },
  {
    "compound": "CC(=O)OC1(c2ccccc2)CCN(CCc2ccccc2)CC1",
    "category": 1
  },
  {
    "compound": "C1CCC2CCCCC2C1 (centres undefined)",
    "category": 0
  },
  {
    "compound": "Clc1ccc(-c2ccc(Cl)c(Cl)c2Cl)c(Cl)c1Cl",
    "category": 0
  },
  {
    "compound": "Clc1ccc(CCC(Cn2ccnc2)Sc2c(Cl)cccc2Cl)cc1 (centres undefined)",
    "category": 1
  },
  {
    "compound": "O=[N+]([O-])c1c2ccccc2cc2ccccc12",
    "category": 1
  },
  {
    "compound": "CC(C)(C)OO",
    "category": 0
  },
  {
    "compound": "CCCCCCCCCCCCBr",
    "category": 0
  },
  {
    "compound": "CC(=[OH+])/C=C(/C)[O-].CC(=[OH+])/C=C(\\C)[O-].CC(=[OH+])/C=C(\\C)[O-].[Al]",
    "category": 0
  },
  {
    "compound": "BrCBr",
    "category": 0
  },
  {
    "compound": "O=C(O)COc1nc(Cl)c(Cl)cc1Cl",
    "category": 1
  },
  {
    "compound": "C=CC(=O)N(C)C",
    "category": 0
  },
  {
    "compound": "[Cl][Sb]([Cl])[Cl]",
    "category": 0
  },
  {
    "compound": "ClC1=C(Cl)[C@]2(Cl)[C@@H]3[C@@H]4C[C@@H]([C@H]5O[C@@H]45)[C@@H]3[C@@]1(Cl)C2(Cl)Cl",
    "category": 1
  },
  {
    "compound": "[CH3][Hg][Cl]",
    "category": 0
  },
  {
    "compound": "CCOC(=O)OC1=C(c2cc(C)ccc2C)C(=O)NC12CCC(OC)CC2 (centres undefined)",
    "category": 0
  },
  {
    "compound": "COc1ccc(/C(=C/C(=O)N2CCOCC2)c2ccc(Cl)cc2)cc1OC",
    "category": 0
  },
  {
    "compound": "N#CSCSC#N",
    "category": 0
  },
  {
    "compound": "CCOc1cc(C(C)(C)C)ccc1C1COC(c2c(F)cccc2F)=N1 (centres undefined)",
    "category": 1
  },
  {
    "compound": "COC12CC[C@@]3(C[C@@H]1C(C)(O)C(C)(C)C)[C@H]1Cc4ccc(O)c5c4[C@@]3(CCN1CC1CC1)[C@H]2O5 (some centres undefined)",
    "category": 1
  },
  {
    "compound": "c1ccc2cc3c(cc2c1)-c1cccc2cccc-3c12",
    "category": 0
  },
  {
    "compound": "CCOP(=S)(OCC)SCS(=O)(=O)CC",
    "category": 1
  },
  {
    "compound": "ClC(Cl)=C(Cl)Cl",
    "category": 0
  },
  {
    "compound": "CC(=O)c1ccc(-c2ccccc2)cc1",
    "category": 0
  },
  {
    "compound": "COc1ccc(OC)c(C=O)c1",
    "category": 0
  },
  {
    "compound": "FC(F)(F)c1cccc(C2=CCN(CCc3ccc4ccccc4c3)CC2)c1",
    "category": 1
  },
  {
    "compound": "OC(c1ccc(Cl)cc1)(c1ccc(Cl)cc1)C(Cl)(Cl)Cl",
    "category": 1
  },
  {
    "compound": "CCC(C)(C)C(=O)OC1=C(c2ccc(Cl)cc2Cl)C(=O)OC12CCCCC2",
    "category": 0
  },
  {
    "compound": "CC1(C)CN=C(NN=C(/C=C/c2ccc(C(F)(F)F)cc2)/C=C/c2ccc(C(F)(F)F)cc2)NC1",
    "category": 1
  },
  {
    "compound": "CC(C)(C)C(O)/C(=C\\c1ccc(Cl)cc1Cl)n1cncn1 (centres undefined)",
    "category": 1
  },
  {
    "compound": "Cc1cc(SCc2sc(-c3ccc(C(F)(F)F)c(F)c3)nc2C)ccc1OCC(=O)O",
    "category": 0
  },
  {
    "compound": "C=CCC1=C(C)C(OC(=O)C2C(C=C(C)C)C2(C)C)CC1=O (centres undefined)",
    "category": 1
  },
  {
    "compound": "ClC1=C(Cl)C2(Cl)C3C(Cl)C(Cl)CC3C1(Cl)C2(Cl)Cl (centres undefined)",
    "category": 0
  },
  {
    "compound": "c1ccc2c(c1)[nH]c1cnccc12",
    "category": 1
  },
  {
    "compound": "CCOCn1c(-c2ccc(Cl)cc2)c(C#N)c(Br)c1C(F)(F)F",
    "category": 1
  },
  {
    "compound": "O=C1C=CC(=O)c2ccccc21",
    "category": 1
  },
  {
    "compound": "COP(=O)(CCC(=O)NCO)OC",
    "category": 0
  },
  {
    "compound": "Oc1c(Cl)c(Cl)cc(Cl)c1Cl",
    "category": 0
  },
  {
    "compound": "CC(Cc1ccc(C(C)(C)C)cc1)CN1C[C@@H](C)O[C@@H](C)C1 (some centres undefined)",
    "category": 1
  },
  {
    "compound": "S=C=Nc1cccc2ccccc12",
    "category": 1
  },
  {
    "compound": "CCOC(=O)C1(c2ccccc2)CCN(CCC(C#N)(c2ccccc2)c2ccccc2)CC1",
    "category": 1
  },
  {
    "compound": "N#CCCSCCC#N",
    "category": 0
  },
  {
    "compound": "CCN",
    "category": 0
  }
]

====

- experiment.summary: qHTS assay to identify small molecule agonists of the AP-1 signaling pathway (AID 1159526)
- settings: ME-180 (cervical carcinoma) AP-1-bla reporter, beta-lactamase FRET ratio, 5 h; series mostly up to 76.8 µM
Records with an inconclusive call do not appear. The source made the active and inactive calls. Calls come from the whole dose curve.

[
  {
    "compound": "COS(=O)(=O)c1ccc(C)cc1",
    "outcome": "inactive"
  },
  {
    "compound": "COc1ccc([N+](=O)[O-])cc1O",
    "outcome": "inactive"
  },
  {
    "compound": "ClC(Cl)=C(Cl)Cl",
    "outcome": "inactive"
  },
  {
    "compound": "CCCCCCCCCBr",
    "outcome": "inactive"
  },
  {
    "compound": "Clc1ccc(-c2ccccc2)cc1",
    "outcome": "inactive"
  },
  {
    "compound": "CCCCCCCCCCCCCCC(Br)C(=O)O (stereo unspecified)",
    "outcome": "inactive"
  }
]
